B1: FBXO3 (parent)
chain: FIDTYSDVGRYIDHYAAIKKAWDD

Variants of: B1
test: protein stability index of a GFP-peptide fusion (GPS, HEK-293T) (PSI 1-6); higher = more stable;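 also: lentivirally expressed fusions sorted by FACS into six bins by GFP to DsRed ratio, PSI derived from sequencing read proportions per bin multiplied by bin number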
cond: c terminus: a fixed tail appended
property-label: protein stability index
Just the number, please, no unit after it.

Answered examples (6):
- R10C: 1.9
- R10F: 2.23
- I18D: 1.7
- W22T: 1.95
- D13S: 1.84
- Y11R: 2.37

The measured protein stability index associated with T4C reads 1.55

The measured protein stability index associated with Y11V reads 1.93

The measured protein stability index associated with Y15W reads 2.08

The measured protein stability index associated with D23G reads 1.35

The measured protein stability index associated with S6P reads 2.03
